The reported numbers originate from patent US9637483B2.

System Tested: JAK2 (Homo sapiens, UniProt O60674)
Construct: purchased Invitrogen
Sequence (O60674 whole entry): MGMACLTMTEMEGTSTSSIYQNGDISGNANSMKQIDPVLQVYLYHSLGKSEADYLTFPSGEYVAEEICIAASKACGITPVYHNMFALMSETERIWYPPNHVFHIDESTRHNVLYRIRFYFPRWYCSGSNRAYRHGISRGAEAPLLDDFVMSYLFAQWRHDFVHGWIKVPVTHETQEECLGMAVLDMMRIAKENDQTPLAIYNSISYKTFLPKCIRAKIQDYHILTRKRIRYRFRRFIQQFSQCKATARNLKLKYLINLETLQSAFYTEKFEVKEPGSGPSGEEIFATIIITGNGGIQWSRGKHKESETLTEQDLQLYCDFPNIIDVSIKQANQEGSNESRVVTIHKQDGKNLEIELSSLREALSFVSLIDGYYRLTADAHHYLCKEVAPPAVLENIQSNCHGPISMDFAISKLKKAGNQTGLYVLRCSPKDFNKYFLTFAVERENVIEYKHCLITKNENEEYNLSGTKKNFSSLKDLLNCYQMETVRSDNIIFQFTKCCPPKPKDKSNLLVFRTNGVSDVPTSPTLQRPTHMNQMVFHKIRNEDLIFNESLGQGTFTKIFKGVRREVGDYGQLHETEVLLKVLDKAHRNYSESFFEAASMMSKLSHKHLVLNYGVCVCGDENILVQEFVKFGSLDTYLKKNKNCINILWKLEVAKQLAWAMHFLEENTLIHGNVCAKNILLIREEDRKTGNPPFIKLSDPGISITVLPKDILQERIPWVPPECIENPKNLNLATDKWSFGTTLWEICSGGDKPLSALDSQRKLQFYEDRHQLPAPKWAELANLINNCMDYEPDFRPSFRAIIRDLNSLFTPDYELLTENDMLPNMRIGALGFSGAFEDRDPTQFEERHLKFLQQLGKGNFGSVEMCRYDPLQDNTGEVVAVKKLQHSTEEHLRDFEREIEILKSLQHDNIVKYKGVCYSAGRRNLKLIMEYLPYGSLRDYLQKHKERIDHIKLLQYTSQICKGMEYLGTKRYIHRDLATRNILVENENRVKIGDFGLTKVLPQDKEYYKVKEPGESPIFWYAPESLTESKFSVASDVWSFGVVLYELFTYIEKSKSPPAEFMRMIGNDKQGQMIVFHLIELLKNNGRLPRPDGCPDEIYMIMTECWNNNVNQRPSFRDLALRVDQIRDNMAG
Assay Comment: JAK2 enzyme inhibition test (LANCE method)
Format: biochemical
Particulars: 1 μM test compound; read-out: JAK2 enzyme inhibitory activity (%, 1 μM)
Reported Endpoint: inhibition at 1 µM (%)
Your answer is read as %, so omit the unit and give the number.

input: GET /values?readout=inhibition at 1 µM&item= CC(C)[C@H](C)n1cc(-c2cc(C3(O)CCC(F)(F)CC3)n(C)n2)c2[nH]nc(N)c2c1=O [Example 37]
output: 99

input: // inhibition at 1 µM lookup, key: Cn1nc(-c2cn(C(C3CC3)C(F)(F)F)c(=O)c3c(N)n[nH]c23)cc1N1CCOCC1 (stereo not shown) [Example 83]
output: 100

input: Quick one: inhibition at 1 µM of CC(C)C(C(F)F)n1cc(-c2cc(N3CCOCC3)n(C)n2)c2[nH]nc(N)c2c1=O (stereo not shown) [Example 80] ?
output: 91

input: # query: inhibition at 1 µM of entry C[C@@H](C1CC1)n1cc(-c2cc(N3CCS(=O)(=O)C(C)(C)C3)n(C)n2)c2[nH]nc(N)c2c1=O [Example 95]
output: 100

input: inhibition at 1 µM for CO[C@]1(c2cc(-c3cn(-c4c(F)cccc4F)c(=O)c4c(N)n[nH]c34)nn2C)C[C@H](C(=O)N(C)C)C1 [Example 124] ?
output: 99

input: Find the recorded inhibition at 1 µM belonging to CNC(=O)c1cc(-c2cn(-c3c(F)cccc3F)c(=O)c3c(N)n[nH]c23)nn1C [Example 65] and report it.
output: 98

input: What does the data say about its inhibition at 1 µM? Entry: CN(C)[C@@H]1CCN(c2cc(-c3cn(-c4c(F)cccc4F)c(=O)c4c(N)n[nH]c34)nn2C)C1 [Example 125]
output: 98
